Molecular target: hNK2 receptor (Homo sapiens, UniProt P21452)
Construct: host or cells: CHO cells
Sequence (P21452 1-398): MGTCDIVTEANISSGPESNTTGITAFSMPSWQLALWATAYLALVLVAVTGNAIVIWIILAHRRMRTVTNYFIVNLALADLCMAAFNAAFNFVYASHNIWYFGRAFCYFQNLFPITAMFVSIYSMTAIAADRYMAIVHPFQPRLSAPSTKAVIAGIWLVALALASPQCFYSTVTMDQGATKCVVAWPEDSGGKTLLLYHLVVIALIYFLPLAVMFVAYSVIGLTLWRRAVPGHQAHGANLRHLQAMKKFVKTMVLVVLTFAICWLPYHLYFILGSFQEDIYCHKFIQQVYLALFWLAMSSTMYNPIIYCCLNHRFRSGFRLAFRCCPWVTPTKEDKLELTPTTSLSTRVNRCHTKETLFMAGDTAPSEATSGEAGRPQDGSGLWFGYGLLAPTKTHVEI
Assay: Antagonistic activity determined by intracellular calcium concentration using neurokinin A and hNK2 receptor-expressing CHO cell (FLIPR)
Format: cell-based
Conditions: CHO, test compound 10^−6 M; neurokinin A stimulation; read-out: Antagonistic activity (inhibitory rate (%))
measured attribute: inhibition at 1 µM (%)

Cc1ccn(-c2ccc(C(=O)N[C@@H]3CCC(F)(F)C[C@@H]3C(=O)N3CCc4c(-c5ccsc5)nc5ccccc5c43)cc2)n1 = 99.3
Cc1ccn(-c2ccc(C(=O)N[C@@H]3CCC(F)(F)C[C@@H]3C(=O)N3CCc4c(-c5ncc[nH]5)nc5ccc(F)cc5c43)cc2)n1 = 100
Cc1ccn(-c2ccc(C(=O)N[C@@H]3CCC(F)(F)C[C@@H]3C(=O)N3CCc4c(-c5nccn5COC(=O)C(C)(C)C)nc5ccccc5c43)cc2)n1 = 98.7
Cc1ccn(-c2ccc(C(=O)N[C@@H]3CCC(F)(F)C[C@@H]3C(=O)N3CCc4c(-c5ncc[nH]5)nc5ccccc5c43)cc2)n1 = 102
Cc1ccn(-c2ccc(C(=O)N[C@@H]3CCC(F)(F)C[C@@H]3C(=O)N3CCc4c(-c5ccccc5)nc5ccc(F)cc5c43)cc2)n1 = 96.7
